Each recorded value in this set is attributed to ChEMBL document CHEMBL3774368.

Assay: Volume of distribution at steady state in portal vein cannulated Sprague-Dawley rat model
Conditions: in vivo
measured-property: Vd (L/kg)
Number only, in L/kg; omit the unit.

Bench note: what Vd did Cn1c(SCCCN2CC3CCN(c4ccc(C(F)(F)F)cc4)C3C2)nnc1-c1cc[nH]c(=O)c1 (stereo in doubt; 55b) show?
4.2

Return reported Vd; argument: Cc1ncoc1-c1nnc(SCCCN2CC3CCN(c4ccc(F)cc4)C3C2)n1C (stereo in doubt; 9a)
1.2

I am curious: what Vd value has been reported for Cc1ncoc1-c1nnc(SCCCN2CC3CCN(c4ccccc4)C3C2)n1C (stereo in doubt; 6b) ?
2.2

Quick one: Vd of Cn1c(SCCCN2CC3CCN(c4ccccc4)C3C2)nnc1C1CCOCC1 (stereo in doubt; 62a) ?
0.44

Vd lookup needed for Cc1ncoc1-c1nnc(SCCCN2CC3CCN(c4ccc(C(F)(F)F)cc4F)C3C2)n1C (stereo in doubt; 8b) , thanks.
1.1

* * *

Biological target: Cytochrome P450 3A4 (Homo sapiens)
Sequence (P08684 whole entry): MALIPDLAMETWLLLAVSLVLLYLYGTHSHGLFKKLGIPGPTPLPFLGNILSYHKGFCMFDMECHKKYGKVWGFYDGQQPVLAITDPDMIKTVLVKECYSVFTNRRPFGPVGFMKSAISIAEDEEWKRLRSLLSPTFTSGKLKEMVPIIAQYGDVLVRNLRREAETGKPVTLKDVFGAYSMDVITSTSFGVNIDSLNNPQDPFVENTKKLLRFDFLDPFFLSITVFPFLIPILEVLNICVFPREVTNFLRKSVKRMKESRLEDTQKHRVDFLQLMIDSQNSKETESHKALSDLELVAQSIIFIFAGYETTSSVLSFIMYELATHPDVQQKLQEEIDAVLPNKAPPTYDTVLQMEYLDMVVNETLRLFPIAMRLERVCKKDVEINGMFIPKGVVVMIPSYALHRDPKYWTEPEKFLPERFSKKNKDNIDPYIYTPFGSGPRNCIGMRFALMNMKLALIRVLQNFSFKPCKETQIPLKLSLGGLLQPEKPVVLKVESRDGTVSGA
Experiment: Inhibition of recombinant human CYP3A4 expressed in baculosomes preincubated for 10 mins followed by cofactor addition measured every minute for 10 mins using diethoxyflourescein as substrate by CYPEX assay
pIC50: −log10 of the molar value.
Hi there, I'd appreciate the recorded pIC50 for every entry that follows.

Given the entry Cn1c(SCCCN2CC3CCN(c4ccc(C(F)(F)F)cc4)C3C2)nnc1-c1cc[nH]c(=O)c1 (stereo in doubt; 55b) , what pIC50 was observed with Cytochrome P450 3A4 (Homo sapiens)?
< 4.70

Lab request: please report pIC50 under test system Cytochrome P450 3A4 (Homo sapiens) for Cc1ncoc1-c1nnc(SCCCN2CC3CCN(c4ccccc4)C3C2)n1C (stereo in doubt; 6b)
< 6.00

Recall the recorded pIC50 for Cc1ncoc1-c1nnc(SCCCN2CC3CCN(c4ccc(F)cc4)C3C2)n1C (stereo in doubt; 9a) with Cytochrome P450 3A4 (Homo sapiens) and state it.
< 5.30

Find the measured pIC50: item Cn1c(SCCCN2CC3CCN(c4ccccc4C(F)(F)F)C3C2)nnc1-c1cccnc1 (stereo in doubt; 52a) , target or system Cytochrome P450 3A4 (Homo sapiens).
< 5.52

Notebook entry, Cytochrome P450 3A4 (Homo sapiens) assay: pIC50 of Cc1ncoc1-c1nnc(SCCCN2CC3CCN(c4ccc(C(F)(F)F)cc4F)C3C2)n1C (stereo in doubt; 8b) = ?
< 5.52

State its pIC50 on Cytochrome P450 3A4 (Homo sapiens): Cn1c(SCCCN2CC3CCN(c4ccccc4)C3C2)nnc1C1CCOCC1 (stereo in doubt; 62a)
< 4.77

Query for Cytochrome P450 3A4 (Homo sapiens): what pIC50 does the record show for CC(C)Oc1ccccc1N1CCC2CN(CCCSc3nnc(-c4cnccn4)n3C)CC21 (stereo in doubt; 35b) ?
< 6.00

Query pIC50 on Cytochrome P450 3A4 (Homo sapiens) for Cn1c(SCCCN2CC3CCN(c4ccc(F)cc4F)C3C2)nnc1-c1cnccn1 (stereo in doubt; 36b)
< 6.00

Cytochrome P450 3A4 (Homo sapiens) / pIC50 / Cn1c(SCCCN2CC3CCN(c4ccc(C(F)(F)F)cc4)C3C2)nnc1-c1cnccn1 (stereo in doubt; 17b) : value?
< 5.70

* * *

Assign microsomal CLint at 0.5 µM to each entry below.
Assay: in vitro
Conditions: human, liver microsomes, CLH

Query: microsomal CLint at 0.5 µM; subject: Cn1c(SCCCN2CC3CCN(c4ccc(C(F)(F)F)cc4)C3C2)nnc1-c1ccc(=O)n(C)c1 (stereo in doubt; 57a)
152 µL/min/mg

Give the measured microsomal CLint at 0.5 µM of Cn1c(SCCCN2CC3CCN(c4ccccc4)C3C2)nnc1C1CCOCC1 (stereo in doubt; 62a) .
26 µL/min/mg

Consider the compound CC(C)Oc1ccccc1N1CCC2CN(CCCSc3nnc(-c4cnccn4)n3C)CC21 (stereo in doubt; 35b) and give its measured microsomal CLint at 0.5 µM.
> 750 µL/min/mg

Given the entry Cn1c(SCCCN2CC3CCN(c4ccccc4C(F)(F)F)C3C2)nnc1-c1cccnc1 (stereo in doubt; 52a) , report its measured microsomal CLint at 0.5 µM.
> 750 µL/min/mg

// query microsomal CLint at 0.5 µM value for entry Cn1c(SCCCN2CC3CCN(c4ccc(C(F)(F)F)cc4)C3C2)nnc1-c1cnccn1 (stereo in doubt; 17b)
> 700 µL/min/mg

Given the entry Cc1ncoc1-c1nnc(SCCCN2CC3CCN(c4ccccc4)C3C2)n1C (stereo in doubt; 6b) , report its measured microsomal CLint at 0.5 µM.
88 µL/min/mg

Could you tell me which microsomal CLint at 0.5 µM is on file for Cc1ncoc1-c1nnc(SCCCN2CC3CCN(c4ccc(C(F)(F)F)cc4F)C3C2)n1C (stereo in doubt; 8b) ?
177 µL/min/mg
